Reference for the values: PubChem BioAssay AID179

# System: CEM cells HIV-1 protection, formazan growth assay
# measurement-notes: NCI AIDS Antiviral Assay
# applied-conditions: measured here: growth of uninfected CEM cells
pIC50: −log10 of the molar value.

>  <molecule>
CCOC(=O)C1=C(C(=O)OCC)C2c3ccccc3C=CN2C(C(=O)OCC)=C(SC)S1 (stereo unspecified)

>  <target-or-system>
CEM cells HIV-1 protection, formazan growth assay

>  <comparison-operator>
<

>  <pIC50>
5.10

$$$$
>  <molecule>
NC(Cn1ccc(=O)c(O)c1)C(=O)O (stereo unspecified)

>  <target-or-system>
CEM cells HIV-1 protection, formazan growth assay

>  <comparison-operator>
=

>  <pIC50>
4.02

$$$$
>  <molecule>
COc1cc(C(C#N)NNC(=O)Cc2ccccc2)cc(OC)c1OC (stereo unspecified)

>  <target-or-system>
CEM cells HIV-1 protection, formazan growth assay

>  <comparison-operator>
=

>  <pIC50>
4.03

$$$$
>  <molecule>
Cc1occc1C(=S)Nc1ccc(Cl)c(C(=O)OC(C)(C)C)c1

>  <target-or-system>
CEM cells HIV-1 protection, formazan growth assay

>  <comparison-operator>
=

>  <pIC50>
5.03

$$$$
>  <molecule>
COC(=O)CC1(C)CCC2(OC(CC(C)=O)C3C(C)(C)CCC[C@@]32C)O1 (stereo partly specified)

>  <target-or-system>
CEM cells HIV-1 protection, formazan growth assay

>  <comparison-operator>
=

>  <pIC50>
3.85

$$$$
>  <molecule>
CCOC(=O)/C(C#N)=C/Nc1c(C)n(C)n(-c2ccccc2)c1=O

>  <target-or-system>
CEM cells HIV-1 protection, formazan growth assay

>  <comparison-operator>
<

>  <pIC50>
3.70

$$$$
